TEST SUMMARY: viability loss of mouse 3T3 cells – cell-based, cherry-pick, single point, set 2, cytotoxicity control, confirmation (AID 651744);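 also: 0% = median of neutral control wells and 100% = median of positive control wells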
CONDITION: NIH/3T3 viability, CellTiter-Glo ATP luminescence, 90 h; at 24.9 µM; hits give high values
Screen size: about 5,600 compounds; about 3,100 (55%) were called active. Another 3% or so got no clear call; they are omitted. So high a share suggests a set chosen from earlier hits. Only a sample is shown.
Response field label: string, one of MET (inhibition strictly below 20%) or NOT MET.

Sample answers from the record:
>>> label("Cc1ccccc1-c1ccc([C@H]2[C@H]3CN(S(=O)(=O)c4ccc(F)cc4)CCCCN3[C@H]2CO)cc1")
"NOT MET"
>>> label("COCC(=O)N(C)C[C@@H]1Oc2ncc(C#Cc3ccccc3OC)cc2C(=O)N([C@@H](C)CO)C[C@H]1C")
"NOT MET"
>>> label("O=S(=O)(Cc1ccccc1)N1CCCCN2[C@@H](CO)[C@@H](c3ccc(-c4ccc(F)cc4)cc3)[C@@H]2C1")
"NOT MET"
>>> label("CN(C)C(=O)c1ccc(-c2ccc([C@@H]3[C@H](CO)N4CCCCN(S(C)(=O)=O)C[C@@H]34)cc2)cc1")
"MET"

Ask: Could you please tell me whether inhibition recorded for N#C[C@@H]1[C@@H](c2ccccc2)[C@@H](CO)N1C(=O)Cc1ccccc1 is less than 20%?
Reply: MET

Ask: Lab note: confirm whether the reported inhibition for this compound is below 20%, equality not counting. compound: COc1cccc(S(=O)(=O)Nc2ccc3c(c2)[C@H]2C[C@H](CC(=O)NCc4ccc(Cl)cc4)O[C@H](CO)[C@H]2O3)c1
Reply: MET

Ask: Input C[C@@H]1CN([C@H](C)CO)S(=O)(=O)c2ccc(C3=CCCC3)cc2O[C@H]1CN(C)Cc1ccccc1F ; condition: inhibition strictly below 20%. Does it hold?
Reply: NOT MET

Ask: Strictly below 20% in inhibition? CC(=O)N(C)C[C@H]1Oc2cc(C#CCN(C)C)ccc2S(=O)(=O)N([C@@H](C)CO)C[C@@H]1C
Reply: MET

Ask: Regarding C[C@H]1CN([C@@H](C)CO)S(=O)(=O)c2ccc(C#CCN(C)C)cc2O[C@@H]1CN(C)Cc1ccc(F)cc1 , kindly confirm whether its inhibition is beneath 20%.
Reply: NOT MET

Ask: Decide: inhibition of C[C@@H]1CN([C@@H](C)CO)S(=O)(=O)c2ccc(-c3ccncc3)cc2O[C@@H]1CN(C)C(=O)Nc1ccc(F)cc1 strictly below 20%?
Reply: NOT MET

====

TEST SUMMARY: viability loss of mouse 3T3 cells – cell-based, cherry-pick, single point, set 2, cytotoxicity control, confirmation (AID 651744);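 also: 0% = median of neutral control wells and 100% = median of positive control wells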
CONDITION: NIH/3T3 viability, CellTiter-Glo ATP luminescence, 90 h; at 24.9 µM
Hit rate of the full screen: of about 5,600 compounds, about 3,100 (55%) were called active. Inconclusive results (about 3%) are left out.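 Rule for the calls: active = mean loss of cell viability signal at or above a set limit, and enough replicates individually reaching it; inconclusive = meets only the mean limit or only the replicate share; inactive = meets neither condition.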 So high a share suggests a set chosen from earlier hits. These entries were drawn from the full list.
API: response.call in Y = active, N = inactive

>>> label("C[C@H]1CCCCO[C@H](CN(C)Cc2ccccc2)[C@@H](C)CN([C@@H](C)CO)C(=O)c2cc(NC(=O)c3ccccc3)ccc2O1")
"Y"

Ask: Per the assay record, what outcome was assigned to C[C@@H]1CN([C@H](C)CO)C(=O)c2cccc(NC(=O)NC3CCCCC3)c2O[C@H]1CN(C)Cc1ccc(C(F)(F)F)cc1 ?
Reply: Y

Ask: So what was the verdict on C[C@@H]1CN([C@@H](C)CO)S(=O)(=O)c2ccc(C#CCN(C)C)cc2O[C@H]1CN(C)C(=O)C1CC1 in this test?
Reply: N

Ask: Look up the recorded call for C[C@H](CO)N1C[C@H](C)[C@@H](CN(C)S(=O)(=O)c2ccc(F)cc2)Oc2cc(C3=CCCC3)ccc2S1(=O)=O in this test.
Reply: Y

Ask: Please share the test call associated with C[C@H](CO)N1C[C@H](C)[C@H](CN(C)S(=O)(=O)c2cccc(F)c2)Oc2ncc(/C=C/c3ccccc3)cc2C1=O .
Reply: Y

====

TEST SUMMARY: viability loss of mouse 3T3 cells – cell-based, cherry-pick, single point, set 2, cytotoxicity control, confirmation (AID 651744);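 also: 0% = median of neutral control wells and 100% = median of positive control wells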
CONDITION: NIH/3T3 viability, CellTiter-Glo ATP luminescence, 90 h; at 24.9 µM; hits give high values
The campaign covered roughly 5,600 compounds. About 3,100 (55%) were called active. Another 3% or so got no clear call; they are omitted. So high a share suggests a set chosen from earlier hits. Only a sample is shown.
inhibition by entry:
Please reply with the bare figure in % and do not write the unit itself.

Sample answers from the record:
>>> numeric_result("C[C@H]1CCCCO[C@H](CN(C)Cc2ccccc2)[C@@H](C)CN([C@@H](C)CO)C(=O)c2cc(NC(=O)NC3CCCCC3)ccc2O1")
102
>>> numeric_result("C[C@@H]1CCCCO[C@@H](CN(C)Cc2ccc(Cl)c(Cl)c2)[C@H](C)CN([C@H](C)CO)C(=O)c2cc(NC(=O)Nc3ccc(F)cc3)ccc2O1")
1.24
>>> numeric_result("O=C(Nc1ccc(-c2ccccc2)cc1)[C@H]1[C@H](CO)[C@H]2Cn3c(cccc3=O)[C@H]2N1CC1CC1")
59.4

Ask: Field request: inhibition | item: COc1ccc(NC(=O)Nc2ccc3c(c2)C(=O)N([C@H](C)CO)C[C@@H](C)[C@H](CN(C)Cc2ccc(Cl)c(Cl)c2)OCCCC[C@@H](C)O3)cc1
Reply: -0.512

====

TEST SUMMARY: viability loss of mouse 3T3 cells – cell-based, cherry-pick, single point, set 2, cytotoxicity control, confirmation (AID 651744);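 also: 0% = median of neutral control wells and 100% = median of positive control wells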
CONDITION: NIH/3T3 viability, CellTiter-Glo ATP luminescence, 90 h; at 24.9 µM; hits give high values
Screen size: about 5,600 compounds; about 3,100 (55%) were called active. Another 3% or so got no clear call; they are omitted. The set was probably picked from earlier hits. The list is a sample of the results.
// returns Not met unless inhibition is strictly below 90%, in which case Met

Consider the following illustrative entries.
>>> label("COc1ccccc1-c1ccc2c(c1)O[C@@H](CN(C)C)[C@H](C)CN([C@H](C)CO)S2(=O)=O")
"Met"
>>> label("C[C@H]1CN([C@@H](C)CO)S(=O)(=O)c2ccc(C#CC3CCCC3)cc2O[C@@H]1CN(C)C(=O)c1cccc(F)c1")
"Not met"
>>> label("N#C[C@H]1[C@@H](c2ccc(C3=CCCCC3)cc2)[C@@H](CO)N1C(=O)NC1CCCCC1")
"Met"
>>> label("C[C@H]1CN([C@@H](C)CO)S(=O)(=O)c2ccc(C3=CCCCC3)cc2O[C@@H]1CN(C)Cc1ccccc1")
"Not met"
>>> label("CC(C)CC#Cc1ccc2c(c1)O[C@H](CN(C)S(=O)(=O)c1cccc(F)c1)[C@@H](C)CN([C@@H](C)CO)S2(=O)=O")
"Not met"

Ask: Record CCCC#Cc1ccc([C@@H]2[C@@H](C#N)N(C(=O)C3CCCC3)[C@@H]2CO)cc1 : is its inhibition strictly below 90%?
Reply: Met

Ask: Is it true that inhibition reported for N#C[C@@H]1[C@@H](c2ccc(/C=C/c3ccccc3)cc2)[C@@H](CO)N1C(=O)C1CC1 is less than 90%?
Reply: Met

Ask: Strictly below 90% in inhibition? COCC#Cc1ccc([C@@H]2[C@H](CO)N3CCCCN(C(=O)CN(C)C)C[C@@H]23)cc1
Reply: Met

Ask: Please state whether inhibition is below 90% for O=C(Nc1ccc2c(c1)[C@@H]1C[C@H](CC(=O)N3CCOCC3)O[C@@H](CO)[C@@H]1O2)c1ccc2c(c1)OCO2
Reply: Met

Ask: hey, is inhibition for C[C@@H]1CN([C@@H](C)CO)C(=O)CCCn2cc(nn2)CO[C@@H]1CN(C)S(=O)(=O)c1ccccc1F lower than 90% or not?
Reply: Met

Ask: Say whether its inhibition is strictly beneath 90%. Entry: O=S(=O)(c1ccc(F)cc1)N1CCCCN2[C@H](C1)[C@H](c1ccc(C3=CCCCC3)cc1)[C@@H]2CO
Reply: Not met
